Each recorded value in this set is attributed to ChEMBL document CHEMBL1201862.

- Tested on: K562
- assay explanation: NCI tumour cell line growth inhibition, 48 h
Calls of active or inactive are those of the source. No stated cut-off is given here; in the data, active = GI50 up to about 1.1 µM and inactive = higher.
assay endpoint: GI50

compound | value measured
CC1=CC(=O)/C(=C/n2c(=S)[nH]c3ccc([N+](=O)[O-])cc32)C(=O)O1 | > 100 µM (inactive)
CC(C)C1OC(=O)/C=C/C=C/C=C/C=C/C=C/CC(O)CC(O)CC(O)CC(O)CC(O)CC(O)CC(O)CC(O)/C=C/C1C (stereo not given) | > 100 µM (inactive)
C=CC(Cl)(CBr)CCC(Br)=C(C)C (stereo not given) | 31.2 µM (inactive)
FC(F)(F)c1nc2cc(SSc3cc4nc(C(F)(F)F)[nH]c4cc3Cl)c(Cl)cc2[nH]1 | > 100 µM (inactive)
CSCCCNC(=O)[C@H](CSC)NC(=O)c1csc(CCNC(=O)[C@@H](NSc2ccccc2[N+](=O)[O-])C(C)O)n1 (stereo not given in full) | > 100 µM (inactive)

For each of the compounds below, note its GI50.
1. C=C1C(=O)OC2C[C@H](C)C3CC(=O)C(C)=C3CC12 (stereo not given in full)
2. CC12N=NNC1C(=O)NC2=O (stereo not given)
3. COc1cc(OC)c2c(=O)c3cccc([N+](=O)[O-])c3n(C)c2c1
4. C#CC(C)(C)Oc1cc(OC)c2c(=O)c3ccccc3n(C)c2c1
5. CC1=C(C)C(=O)c2c(cc3c4ccccc4ccn23)C1=O

["4.47 µM (inactive)", "> 100 µM (inactive)", "> 100 µM (inactive)", "10.7 µM (inactive)", "> 100 µM (inactive)"]

====

- Test system: HCT-116
- assay explanation: NCI tumour cell line growth inhibition, 48 h
The source made the active and inactive calls. Rule as the data show it: active = GI50 up to about 1.1 µM and inactive = higher.
Pick one: active, inactive

Record excerpt, results attached:
compound | assigned label
Cc1cc(C2(c3cc(C)c(O)c4ncccc34)OC(=O)c3ccccc32)c2cccnc2c1O | active
CCC1CCN=C(Cn2cc(C)c(=O)[nH]c2=O)N1 (stereo not drawn) | inactive
CC(C)(C)[Si](C)(C)OC1C(=O)C[C@H]2CCCC[C@@H]12 (stereo partly drawn) | inactive
O=C1OC(c2ccccc2)=N/C1=C/NC(Cc1c[nH]cn1)C(=O)O (stereo not drawn) | inactive
Cc1cn([C@H]2C[C@@H]3[C@@H](COC(CCl)N3O)O2)c(=O)[nH]c1=O (stereo partly drawn) | inactive
Cc1cn(C2CC(O)C(Cn3nncc3Cn3ccc(=O)[nH]c3=O)O2)c(=O)[nH]c1=O (stereo not drawn) | inactive

I would be grateful if you could indicate the recorded call for CCCCCCCCCCCC1NC(N)=NC(CCCO)=C1C(=O)OC (stereo not drawn) .
inactive

Same lookup for `N#Cc1ncc(C(Cl)Cl)nc1Cl` , please.
inactive

====

- Test system: SF-295
- assay explanation: NCI tumour cell line growth inhibition, 48 h
Active and inactive are the calls of the source. No stated cut-off is given here; in the data, active = GI50 up to about 1.1 µM and inactive = higher.
Would you kindly list GI50 for each of these compounds?

compound | assay system | GI50
O=C1CC(c2ccccc2)n2c(nc3ccccc32)N1 (centres undefined) | SF-295 | > 100 µM (inactive)
O=C(COc1ccc(OCC(=O)N2C(=O)CC(=O)N(c3ccccc3)C2=S)cc1)N1C(=O)CC(=O)N(c2ccccc2)C1=S | SF-295 | 56.6 µM (inactive)
O=c1/c(=C/c2ccc(-c3ccc(Cl)cc3Cl)o2)sc2n1[C@@H](c1ccc(Cl)cc1)C=C(c1cc(F)c(Cl)cc1Cl)N=2 | SF-295 | 53.2 µM (inactive)

For each of the compounds below, note its GI50.
1. CC(=O)Nc1ccc(/C=C/[N+](=O)[O-])cc1
2. NC(=O)C(C(N)=O)=C(O)/C(O)=C/C(=O)c1ccccc1
3. O=C1NCC(CSc2nc3cc(C4CCCc5c4[nH]c4ccccc54)ccc3o2)N1 (centres undefined)
4. COc1ccc(-c2nc(SCC(=O)N/N=C/c3ccc([N+](=O)[O-])cc3)[nH]c2-c2ccc(OC)cc2)cc1
5. CCN(CC)C(=S)SC [METHYLDIETHYL CARBAMODITHIOATE]

5.71 µM (inactive)
> 100 µM (inactive)
43.5 µM (inactive)
8.05 µM (inactive)
> 100 µM (inactive)

Consider the compound `O=C(c1ccccc1)n1c(Cc2ccccc2)nc2cc(C34CC5CC(CC(C5)C3)C4)ccc21` and give its measured GI50.
52.2 µM (inactive)

====

- System: SN12C
- assay explanation: NCI tumour cell line growth inhibition, 48 h
Calls of active or inactive are those of the source. No stated cut-off is given here; in the data, active = GI50 up to about 1.1 µM and inactive = higher.
Pick one: T = active, F = inactive

Record excerpt, results attached:
compound | assay system | assigned label
Cn1nc(/C=C\C(=O)N2CC(CCl)c3c2cc(N)c2ccccc32)cc1/C=C/C(=O)N1CC(CCl)c2c1cc(N)c1ccccc21 (configuration not stated) | SN12C | T
O=S1(=O)c2ccccc2NC(=S)N1c1ccccc1 | SN12C | F
Cc1cn(C2CC(O)C(Cn3nncc3Cn3ccc(=O)[nH]c3=O)O2)c(=O)[nH]c1=O (configuration not stated) | SN12C | F

I would be grateful if you could indicate the recorded call for `COC(=O)[C@H](CCSC)NC(=O)N[C@H](C)c1ccccc1` .
F

Same lookup for `CCN(CC)C(=O)Cn1c(-c2ccccc2)cc2ccccc21` , please.
F

Same lookup for `COc1ccc(CN(CCN(C)C)c2ccccn2)cc1.Cn1c(=O)c2[nH]c(Br)nc2n(C)c1=O` , please.
F

Same lookup for `O=C(O)c1cc(N(Cc2ccccc2O)Cc2cc(O)ccc2O)ccc1O` , please.
F

Same lookup for COc1ccc(NC(=O)/C(CC2=Nc3ccc([N+](=O)[O-])cc3NC2O)=N\NC(=O)C[N+](C)(C)C)c(OC)c1 (configuration not stated) , please.
F

Same lookup for `CCCCC1(NN=C2CCCCC2)C(=O)N(c2ccccc2)N(c2ccccc2)C1=O` , please.
F

====

- Test system: SN12C
- assay explanation: NCI tumour cell line growth inhibition, 48 h
Calls of active or inactive are those of the source. No stated cut-off is given here; in the data, active = GI50 up to about 1.1 µM and inactive = higher.
assay endpoint: GI50

These solved cases illustrate the format of a correct answer.
molecule | assay endpoint | value measured
CCNc1cc2c(cc1O)CC[C@@H]1[C@@H]2CC[C@]2(C)[C@@H](O)CC[C@@H]12 | GI50 | 15.3 µM (inactive)
C/C=C1\Oc2ccc(OC)cc2S1(=O)=O | GI50 | > 100 µM (inactive)
Cc1cn(CC2=NCCN2)c(=O)[nH]c1=O | GI50 | > 100 µM (inactive)

For each of the molecules below, note its GI50.
1. O=C(CCCCCCCCCCc1ccccc1)C1=C(O)CCCC1=O
2. O=C1Nc2ccc(Br)cc2/C1=N/S(=O)(=O)O
3. CC1CC(Br)C(=O)O1 (stereo unspecified)
4. N=C(c1ccccc1)N(O)C1CCCCC1
5. CC(C)CC(NC=O)C(=O)NC(Cc1ccccc1)NC(=O)CNC(=O)C(C)NC(=O)OC(C)(C)C (stereo unspecified)
6. CC(C)C(=O)NCC[C@@H](CNC(=O)OC(C)(C)C)NC(=O)OC(C)(C)C
7. CCNc1nnc(-c2nsc3ccccc23)s1
8. Cc1cccc(NC(=O)/C=C/c2ccc([N+](=O)[O-])cc2)c1

1: 35.2 µM (inactive); 2: 18.4 µM (inactive); 3: > 100 µM (inactive); 4: > 100 µM (inactive); 5: > 100 µM (inactive); 6: > 100 µM (inactive); 7: > 100 µM (inactive); 8: > 41.2 µM (inactive)

For each of the molecules below, note its GI50.
1. CC1=NN(C(=O)c2ccc([N+](=O)[O-])cc2)C(=O)C1/N=N/c1ccccc1C(=O)O (stereo unspecified)
2. FC(F)(F)c1nc2cc(SSc3cc4nc(C(F)(F)F)[nH]c4cc3Cl)c(Cl)cc2[nH]1
3. CC/C(Cl)=N\OC(=O)Nc1ccc(OC)c(C)c1
4. N#Cc1c(N)nc(SCc2ccccc2)c(C#N)c1-c1ccc(O)cc1

1. > 100 µM (inactive)
2. > 100 µM (inactive)
3. 15.9 µM (inactive)
4. 13.8 µM (inactive)

For each of the molecules below, note its GI50.
1. COC(=O)[C@H](Cc1ccccc1)NC(=O)[C@H](Cc1ccccc1)NC(=O)[C@@H]1CCCN1C(=O)N[C@H]1C2C=CC(C2)C1C(=O)N1CCC[C@H]1C(=O)N[C@@H](C)C(=O)N[C@H](C(=O)OC)C(C)C (stereo partly specified)
2. CC1CC(C)CN(S(=O)(=O)c2cc(Cl)c(Oc3ccc([N+](=O)[O-])cc3Cl)c(Cl)c2)C1 (stereo unspecified)
3. CCCCSC(=CC(=O)c1cccc(C(=O)C=C(SCCCC)SCCCC)n1)SCCCC
4. Cn1cnc([N+](=O)[O-])c1Sc1nc2ccccc2o1
5. O=C1Nc2ccccc2/C1=N/NC(=S)Nc1cccc(Cl)c1
6. CCOCCOC(=O)C1CCC(=O)N1CN(C(C)=O)c1cc(OC)ccc1OC (stereo unspecified)

1: > 100 µM (inactive); 2: > 100 µM (inactive); 3: > 100 µM (inactive); 4: 6.78 µM (inactive); 5: 14.4 µM (inactive); 6: > 100 µM (inactive)
